- Protocol: yeast display, Sf9 membrane polyspecificity reagent, FACS + sequencing; frameworks hold sequencing errors

# Item sequence, polyreactivity (PSR sort gate)
data = [
    ("QVQLVESGGCLVQAGGSLRLSCAASGITFVGNAMGCYRQAPVKERELVAGIRGNGGSTYYADSVKGRFTISRDYAKNTVYLQMNSLKPEDTAVYYCAAAAYYADFDYWGQGTQVTVSS", "low polyreactivity"),
    ("QVQLVESGGGLVQAGGSLRLSCAASGSIFLTYDMGWYRQAPGKERELVAAITGSGDSTYYADSVKGRFTISRDNAKNTVYLQMNSLKPEDTAVYYCNADGPSTPWVDYGYWGQGTQVTVSS", "low polyreactivity"),
    ("QVQLVESGGGLVQAGGSLRLSCAASGFIFESNAMGWYRQAPGKERELVAAITKRGGSTYYADSVKGRFTISRDNAKNTVYLQMNSLKPEDTAVYYCARYSSRYSSGYDYWGQGTQVTVSS", "high polyreactivity"),
    ("QVQLVESGGGLVQAGGSLRLSCAASGFTFKSYGMGWYRQAPGKERELVAAISKSGGRTYYADSVKGRFTISRDNAKNTVYLQMNSLKPEDTAVYYCAARVYGVDGYGYWGQGTQVTVSS", "high polyreactivity"),
    ("QVQLVESGGGLVQAGGSLRLSCAASGRIFKRNAMGWYRQAPGKERELVAAITGNVGSTYYADSVKGRFTISRDNAKNTVYLQMNSLKPEDTAVYYCAAYVQYSSIVGYGYWGQGTQVTVSS", "high polyreactivity"),
    ("QVQLVESGGGLVQAGGSLRLSCAASGRIFGRYAMGWYRQAPGKERELVAVISSGGSTYYADSVKGRFTISRDNAKNTVYLQMNSLKREDTAVYYCAAVNRGGYDYWGQGTQVTVSS", "low polyreactivity"),
    ("QVQLVESGGGLVQAGGSLRLSCAASGSNFLDNAMGWYRQAPGKERELVAAITSSGGSTYYADSVKGRFTISRDNAKNTVYLQMNSLKPEDTAVYYCAADEWIVHEGYYSSYYYWGQGTQVTVSS", "low polyreactivity"),
    ("QVQLVESGGGLVQAGGSLRLSCAASGSTFGSNAMGWYRQAPGKERELVAAITNGGSTNYADSVKGRFTISRDNAKNTVYLQMHSLKPEDTAVYYCNADPQQSKLWTYFFGFPGYYWGQGTQVTVSS", "low polyreactivity"),
    ("QVQLVESGGGLVQAGGSLRLSCAASGRIFAYYAMGWYRQAPGKERELVAAITRSGARTYYADSVKGRFTISRDNAKNTVYLQMNSLKPEDTAVYYCAAEGVRIGTRYDYWGQGTQVTVSS", "high polyreactivity"),
    ("QVQLVESGGGLVQAGGSLRLSCAASGFIFARYAMGWYREAPGKERELLAAITARGGSTYYADSVKGRFTISRDNAKNTVYLQMNSLKPEDTAVYYCADVSGYSTGGYRNRYNYWGQGTHVTVSS", "high polyreactivity"),
    ("QVQLVESGGGLVQAGGSLRLSCAASGITFIYYAMGWYSQAPGKDRELVAAISRSGGSTYYADSVKGRFTISRDNAKNTVYLQMNSLKPEETAVYYCAADGSKYSGRVTGDYWGQGTQVTVSS", "high polyreactivity"),
]
